pIC50: −log10 of the molar value.
Across several publications, the following pIC50 results were reported for Apoptosis regulator Bcl-2 (Homo sapiens, UniProt P10415).
Where pIC50 equals or exceeds 7, the correct label is yes; where it does not, the label is no.

[
  {
    "chemicalSmiles": "N#CC1=C2C(=NC1=O)c1cccc3c(Sc4ccc(N)cc4)ccc2c13",
    "label": "no"
  },
  {
    "chemicalSmiles": "CN1CCN(S(=O)(=O)NC(=O)c2ccc(N3CCN(CC4=C(c5ccc(Cl)cc5)CCC(C)(C)C4)CC3)cc2)CC1",
    "label": "no"
  },
  {
    "chemicalSmiles": "N#CC1=C(C#N)c2ccc(NCc3ccccc3)c3cccc(c23)C1=O",
    "label": "no"
  },
  {
    "chemicalSmiles": "C[C@@H]1CC[C@H]2C(CN3CCN(c4ccc(C(=O)NS(=O)(=O)c5ccc(NCC6CCOCC6)c([N+](=O)[O-])c5)c(Oc5cnc6[nH]ccc6c5)c4)CC3)=C(C(F)(F)F)O[C@@H]3O[C@@]4(C)CC[C@@H]1[C@]32O4",
    "label": "yes"
  },
  {
    "chemicalSmiles": "O=C(NS(=O)(=O)c1ccc(N[C@H](CCN2CCOCC2)CSc2ccccc2)c(S(=O)(=O)C(F)(F)F)c1)c1ccc(P2(=O)CCN(Cc3ccccc3-c3ccc(Cl)cc3)CC2)cc1",
    "label": "no"
  },
  {
    "chemicalSmiles": "O=C(NS(=O)(=O)c1ccc(N[C@H](CCN2CCOCC2)CSc2ccccc2)c(S(=O)(=O)C(F)(F)F)c1)c1ccc(N2CCN(Cc3ccncc3-c3ccc(Cl)cc3)CC2)cc1",
    "label": "yes"
  },
  {
    "chemicalSmiles": "Cc1c(C(=O)O)c(-c2cccc(N3CCN(c4ccc(NS(=O)(=O)c5ccc(N[C@H](CCN6CCCC6)CSc6ccccc6)c(S(=O)(=O)C(F)(F)F)c5)cc4)CC3)c2)c(-c2ccc(Cl)cc2)n1C",
    "label": "yes"
  }
]
